# Test system: NCI/ADR-RES
# Protocol text: NCI tumour cell line growth inhibition, 48 h
The source made the active and inactive calls. Rule as the data show it: active = GI50 up to about 1.1 µM and inactive = higher.
Value kind: GI50

[[record]]
molecule = "CCCC(CCC(N)=O)(CCC(N)=O)[N+](=O)[O-]"
result = "> 100 µM (inactive)"

[[record]]
molecule = "C[C@@H](NC(=O)OC1C=CC2(CC1)C(=O)N(C)c1ccccc12)c1cccc2ccccc12 (stereo partly drawn)"
result = "11.7 µM (inactive)"

[[record]]
molecule = "CNC(=O)N1CCN(C(=O)NC)CCN(C(=O)NC)CC1"
result = "> 100 µM (inactive)"

[[record]]
molecule = "CCC(=O)O[C@H]1CC[C@H]2[C@@H]3CCC4=C/C(=N/OC(=O)c5cccc6c(=O)c7ccccc7[nH]c56)CC[C@]4(C)[C@H]3CC[C@]12C"
result = "31.7 µM (inactive)"

[[record]]
molecule = "COc1ccc(Nc2nc3cc(C(F)(F)F)ccc3nc2C(=O)O)cc1OC"
result = "30.8 µM (inactive)"

[[record]]
molecule = "N#Cc1c(-c2ccccc2)c(/N=N/c2ccc(F)cc2)c(=O)n2c1[nH]c1ccccc12"
result = "3 µM (inactive)"

[[record]]
molecule = "COC1=C(OC)C(=O)C(Cc2c(Cl)nc3n2CCS3)=C(C)C1=O"
result = "12.8 µM (inactive)"

[[record]]
molecule = "O=S(=O)(O)c1ccc2c(/N=N/c3ccc(/N=N/c4ccccc4)cc3)c(O)c(S(=O)(=O)O)cc2c1"
result = "> 100 µM (inactive)"


----------
# System: HCT-116
# Protocol text: NCI tumour cell line growth inhibition, 48 h
Activity calls are given as the source filed them. No stated cut-off is given here; in the data, active = GI50 up to about 1.1 µM and inactive = higher.
The molecules listed here are annotated with their GI50.
Value kind: GI50

[[record]]
smiles_string = "N=C(N)NCCN1CC2CCC(CC2)C1"
result = "> 100 µM (inactive)"

[[record]]
smiles_string = "CC/C(Cl)=N\\OC(=O)Nc1ccc(F)c([N+](=O)[O-])c1"
result = "7 µM (inactive)"

[[record]]
smiles_string = "CCOC(=O)CCn1cnc(N)n1"
result = "> 100 µM (inactive)"

[[record]]
smiles_string = "O=C(CNc1nncs1)NO"
result = "> 100 µM (inactive)"

[[record]]
smiles_string = "Nc1cccc(OCc2nc(N)nc(N)c2-c2ccc(Cl)cc2)c1"
result = "44.7 µM (inactive)"

[[record]]
smiles_string = "COc1cc2c(cc1OC)-c1cc3ccccc3c(=O)n1CC2"
result = "10.4 µM (inactive)"


----------
# Test system: OVCAR-4
# Protocol text: NCI tumour cell line growth inhibition, 48 h
Activity calls are given as the source filed them. No stated cut-off is given here; in the data, active = GI50 up to about 1.1 µM and inactive = higher.
Value kind: GI50

[[record]]
molecule = "CCCCCCCCCCCCCCCCCCNC(=O)OCC(CNS(=O)(=O)CCC[n+]1cccc2ccccc21)COC (stereo not drawn)"
value_kind = "GI50"
result = "1.31 µM (inactive)"

[[record]]
molecule = "C=CCOCn1cnc2c(N)ncnc21"
value_kind = "GI50"
result = "> 100 µM (inactive)"

[[record]]
molecule = "COP(=O)(OC)/C(=C/c1cn(C(C)=O)c2ccccc12)NC(C)=O"
value_kind = "GI50"
result = "33.2 µM (inactive)"

[[record]]
molecule = "CC1=NN(c2ccccc2)C(=O)C1/N=N/c1ccc([As](=O)(O)O)c(O)c1 (stereo not drawn)"
value_kind = "GI50"
result = "> 100 µM (inactive)"

[[record]]
molecule = "O=C1/C(=C/c2cccs2)NC(=S)N1CN1CCCCC1"
value_kind = "GI50"
result = "20.7 µM (inactive)"

[[record]]
molecule = "CN(C)c1ccc(/C=N/c2ccc(-c3nc4ccccc4s3)cc2)cc1"
value_kind = "GI50"
result = "58.7 µM (inactive)"

[[record]]
molecule = "NP(=O)(Oc1c2occc2cc2ccc(=O)oc12)N(CCCl)CCCl (stereo not drawn)"
value_kind = "GI50"
result = "> 100 µM (inactive)"

[[record]]
molecule = "O=C(NC1CCC[C@H]1OC(=O)c1ccccc1)c1ccccc1 (stereo partly drawn)"
value_kind = "GI50"
result = "30.8 µM (inactive)"

